Test system: HeLa MKYP cells
Assay: Human mitophagy assay (HeLa mKeima assay, FACS)
Assay type: cell-based
Conditions: Homo sapiens, HeLa, HeLa mKeima assay; read-out: Mitophagy EC50 (HeLa mKeima assay)
Procedure: Briefly, HeLa MKYP cells were plated at 10,000 cells/well in 96 well plates along with compounds at various concentrations. Following 16 hrs of incubation, cells were treated with 1 uM FCCP/oligomycin for 6 hours, then analyzed via FACS for the presence of mitochondria in lysosomes (as determined by an emissions spectrum shift from the pH-sensitive mtKeima tag). […]
value-kind: EC50 (nM)
Provide the reading as a plain figure in nM.

Answered cases to consult:
- compound: "FC(F)(F)c1cc2c(N[C@H]3c4ccccc4CC[C@@H]3N3CCOCC3)ncnc2[nH]1 (single isomer, unassigned) [EP-0038098]"
  recorded-measurement: 220
- compound: "c1ccc2c(c1)CC[C@H](N1C[C@H]3COC[C@H]3C1)[C@H]2Nc1ncnc2[nH]c(C3CC3)cc12 [EP-0039713]"
  recorded-measurement: 100

Request: Endpoint output: EC50 of c1ccc2c(c1)OC[C@H](N1CCOCC1)[C@H]2Nc1ncnc2[nH]c(C3CC3)cc12 [EP-0040080] . Value?
Result: 590

Request: Endpoint output: EC50 of CN(c1ncnc2[nH]c(C3CC3)cc12)C1c2ccccc2CCC1N1C[C@H]2COC[C@H]2C1 (stereo partly shown) [EP-0039743] . Value?
Result: 3880

Request: Endpoint output: EC50 of CN(CC1CCOCC1)[C@H]1CCc2ccccc2[C@@H]1Nc1ncnc2[nH]c(C(F)(F)F)cc12 [EP-0038394] . Value?
Result: 8260

Request: Endpoint output: EC50 of Fc1ccc2c(c1)CC[C@@H](N1CCOCC1)[C@@H]2Nc1ncnc2[nH]c(C3CC3)cc12 [EP-0039747] . Value?
Result: 9310

Request: Endpoint output: EC50 of FC(F)(F)c1cc2c(N[C@H]3c4ccccc4CC[C@@H]3N3CC4(CCOCC4)C3)ncnc2[nH]1 (single isomer, unassigned) [EP-0038463] . Value?
Result: 2590

* * *

Test system: HeLa MKYP cells
Assay: Cell death measured by DAPI staining, with 1 μM FCCP/oligomycin or no toxin (no FO)
Assay type: cell-based
Settings: with 1 μM FO
true (1) means recorded Max % death with 1 μM FO is 20% or above; false (0) means it is below 20%.

- compound: "FC(F)(F)c1cc2c(N[C@H]3c4ccccc4C[C@@H]3N3C[C@H]4COC[C@H]4C3)ncnc2[nH]1"
  label-value: "false (0)"
- compound: "c1ccc2c(c1)OC[C@H](C1CCOCC1)[C@@H]2Nc1ncnc2[nH]c(C3CC3)cc12"
  label-value: "false (0)"
- compound: "OC(C1CCOCC1)[C@H]1COc2ccccc2[C@@H]1Nc1ncnc2[nH]c(C(F)(F)F)cc12 (stereo partly shown)"
  label-value: "false (0)"
- compound: "CS(=N)(=O)C1CN(C2COc3ccccc3C2Nc2ncnc3[nH]c(C(F)(F)F)cc23)C1 (stereo not shown)"
  label-value: "false (0)"
- compound: "CN1CCN(C2COc3ccccc3C2Nc2ncnc3[nH]c(C4CC4)cc23)CC1=O (racemic)"
  label-value: "false (0)"
- compound: "Fc1ccc2c(c1)CC[C@@H](N1C[C@H]3COC[C@H]3C1)[C@@H]2Nc1ncnc2[nH]c(C(F)(F)F)cc12 (single isomer, unassigned)"
  label-value: "true (1)"

Request: hey, is Max % death with 1 μM FO for this one >= 20%? Fc1ccc2c(c1)OC[C@H](N1C[C@H]3COC[C@@H]3C1)[C@H]2Nc1ncnc2[nH]c(C(F)(F)F)cc12 (single isomer, unassigned) [EP-0040748]
Result: true (1)

Request: hey, is Max % death with 1 μM FO for this one >= 20%? FC(F)(F)c1cc2c(N[C@H]3c4ccc(Br)cc4OC[C@@H]3N3CCOCC3)ncnc2[nH]1 (single isomer, unassigned)
Result: false (0)

Request: hey, is Max % death with 1 μM FO for this one >= 20%? OC[C@@H]1CN([C@H]2COc3ccccc3[C@@H]2Nc2ncnc3[nH]c(C(F)(F)F)cc23)CCO1 (single isomer, unassigned) [EP-0041585]
Result: false (0)

Request: hey, is Max % death with 1 μM FO for this one >= 20%? [2H]C([2H])([2H])OC1CN([C@H]2COc3ccccc3[C@@H]2Nc2ncnc3[nH]c(C(F)(F)F)cc23)C1 (single isomer, unassigned) [EP-0041326]
Result: false (0)

Request: hey, is Max % death with 1 μM FO for this one >= 20%? C[C@@H]1CN([C@@H]2CCc3ccccc3[C@H]2Nc2ncnc3[nH]c(C4CC4)cc23)CCO1 (single isomer, unassigned)
Result: false (0)

Request: hey, is Max % death with 1 μM FO for this one >= 20%? FC(F)(F)c1cc2c(N[C@H]3c4ccccc4CC[C@@H]3N3CC4(COC4)C3)ncnc2[nH]1
Result: true (1)

Request: hey, is Max % death with 1 μM FO for this one >= 20%? C[C@@]12COC[C@]1(C)CN(C1CCc3ccccc3C1Nc1ncnc3[nH]c(C(F)(F)F)cc13)C2 (stereo partly shown)
Result: true (1)

* * *

Assay: Mitotoxicity / Mitotox safety margin (therapeutic window)
Assay type: cell-based
value-kind: Mitotox safety margin (Therapeutic window)

Answered cases to consult:
- compound: "FC(F)(F)c1cc2c(N[C@@H]3c4ccccc4CC[C@H]3N3CCOCC3)ncnc2[nH]1 (racemic)"
  recorded-measurement: "++++ (++++ = 30<)"
- compound: "Fc1ccc2c(c1)CC[C@H](N1CCOCC1)[C@H]2Nc1ncnc2[nH]c(C3CC3)cc12 (single isomer, unassigned) [EP-0039746]"
  recorded-measurement: "+++ (+++ = 20 < x < 30)"
- compound: "FC(F)(F)c1cc2c(N[C@H]3c4ccccc4CC[C@@H]3N3CCOCC3)ncnc2[nH]1 (single isomer, unassigned)"
  recorded-measurement: "++++ (++++ = 30<)"
- compound: "c1ccc2c(c1)OC[C@H](N1CCOCC1)[C@H]2Nc1ncnc2[nH]c(C3CC3)cc12"
  recorded-measurement: "++ (++ = 10 < x < 20)"
- compound: "Fc1ccc2c(c1)CC[C@H](N1CCOCC1)[C@H]2Nc1ncnc2[nH]c(C(F)(F)F)cc12 (single isomer, unassigned)"
  recorded-measurement: "++ (++ = 10 < x < 20)"

Then this compound:
Request: Endpoint output: Mitotox safety margin (Therapeutic window) of Fc1ccc2c(c1)CC[C@H](N1CCOCC1)[C@H]2Nc1ncnc2[nH]c(C3CC3)cc12 (single isomer, unassigned) [EP-0038521] . Value?
Result: +++ (+++ = 20 < x < 30)

* * *

Tested on: HeLa MKYP cells
Test: Human mitophagy assay (HeLa mKeima assay, FACS)
Assay type: cell-based
Settings: Homo sapiens, HeLa, HeLa mKeima assay; read-out: Mitophagy EC50 (HeLa mKeima assay)
Experimental: Briefly, HeLa MKYP cells were plated at 10,000 cells/well in 96 well plates along with compounds at various concentrations. Following 16 hrs of incubation, cells were treated with 1 uM FCCP/oligomycin for 6 hours, then analyzed via FACS for the presence of mitochondria in lysosomes (as determined by an emissions spectrum shift from the pH-sensitive mtKeima tag). […]
Entries annotated with measured EC50
A bare number is not enough; add the unit after it.

Answered cases to consult:
- compound: "Fc1ccc2c(c1)CC[C@@H](N1CCOCC1)[C@@H]2Nc1ncnc2[nH]c(C(F)(F)F)cc12 (single isomer, unassigned) [EP-0038504]"
  value-kind: "EC50"
  recorded-measurement: "14200 nM"
- compound: "Fc1ccc2c(c1)CC[C@H](N1CCOCC1)[C@H]2Nc1ncnc2[nH]c(C3CC3)cc12 (single isomer, unassigned) [EP-0038521]"
  value-kind: "EC50"
  recorded-measurement: "370 nM"
- compound: "FC(F)(F)c1cc2c(N[C@H]3c4ccccc4CC[C@@H]3N3CC4(COC4)C3)ncnc2[nH]1 [EP-0038249]"
  value-kind: "EC50"
  recorded-measurement: "2730 nM"
- compound: "FC(F)(F)c1cc2c(N[C@@H]3c4ccccc4CC[C@@H]3N3CCOCC3)ncnc2[nH]1 [EP-0037820]"
  value-kind: "EC50"
  recorded-measurement: "17400 nM"
- compound: "FC(F)(F)c1cc2c(N[C@H]3c4ccccc4CC[C@@H]3N3CCCCC3)ncnc2[nH]1 (single isomer, unassigned) [EP-0038392]"
  value-kind: "EC50"
  recorded-measurement: "2770 nM"

Then this compound:
Request: Endpoint output: EC50 of FC(F)(F)c1cc2c(N[C@@H]3c4ccccc4CC[C@H]3N3C[C@H]4COC[C@H]4C3)ncnc2[nH]1 (single isomer, unassigned) [EP-0038583] . Value?
Result: 70 nM
